- System: Human platelet cyclic AMP phosphodiesterase
- Assay remarks: Cyclic AMP phosphodiesterase assay (human platelet)
- Type: biochemical
- Measurement conditions: human platelet phosphodiesterase, 1 μM cyclic AMP as substrate
- Description: The inhibition of cyclic AMP phosphodiesterase activity by the subject compounds was assayed by the method of Filburn and Karn, Analyt. Biochem., 52:505-516 (1973), using 1 μM cyclic AMP as the substrate. Human platelet cyclic AMP phosphodiesterase was obtained from human donors. Platelets were isolated and washed by centrifugation, the membranes ruptured by a sequential freeze-thaw procedure and hypotonic lysis and the soluble enzyme isolated by high speed centrifugation. […]
Measurement name: IC50 (nM)
Report only the number, with the unit nM understood.

Known results for molecules:
Smiles representation: O=C1CN2Cc3cc(OCCCC(=O)N(CCO)C4CCCCC4)ccc3N=C2N1
IC50, nM: 12.5
--
Smiles representation: O=C1CN2Cc3cc(OCCCC(=O)NC4CCCCC4)ccc3N=C2N1
IC50, nM: 72
--
Smiles representation: CN(C(=O)CCCOc1ccc2c(c1)CN1CC(=O)NC1=N2)C1CCCCC1
IC50, nM: 12.5
--
Smiles representation: CC(C)N(C(=O)CCCOc1ccc2c(c1)CN1CC(=O)NC1=N2)C1CCCCC1
IC50, nM: 3.2
--
Smiles representation: O=C1CN2Cc3cc(OCCCC(=O)N(Cc4ccccc4)Cc4ccccc4)ccc3N=C2N1
IC50, nM: 9.2

// next item, IC50 requested
[ask] So what IC50 did `COCCN(C(=O)CCCOc1ccc2c(c1)CN1CC(=O)NC1=N2)C1CCCCC1` get with Human platelet cyclic AMP phosphodiesterase?
[reply] 1.3

----------
- Tested on: rat heart phosphodiesterase
- Assay remarks: Cyclic AMP phosphodiesterase inhibition (rat heart)
- Type: biochemical
Measurement name: Rat Heart IC25

Known results for compounds:
Smiles representation: O=C1CN2Cc3cc(OCCCC(=O)N(Cc4ccccc4)Cc4ccccc4)ccc3N=C2N1
Rat Heart IC25: 60 nM

Smiles representation: CN(C(=O)CCCOc1ccc2c(c1)CN1CC(=O)NC1=N2)C(c1ccccc1)c1ccccc1
Rat Heart IC25: 60 nM

// next item, Rat Heart IC25 requested
[ask] So what Rat Heart IC25 did `CN(C(=O)COc1ccc2c(c1)CN1CC(=O)NC1=N2)C1CCCCC1` get with rat heart phosphodiesterase?
[reply] 4,400 nM

----------
Reported IC50 values for a set of compounds
- System: Human platelet cyclic AMP phosphodiesterase
- Assay remarks: Cyclic AMP phosphodiesterase assay (human platelet)
- Assay type: biochemical
- Measurement conditions: human platelet phosphodiesterase, 1 μM cyclic AMP as substrate
Report only the number, with the unit nM understood.

Known results for compounds:
Compound: O=C1CN2Cc3cc(OCCCC(=O)N4CCCC5CCCCC54)ccc3N=C2N1 (racemic)
Endpoint unit: nM
IC50: 13.5
//
Compound: CN(C(=O)CCCCCCOc1ccc2c(c1)CN1CC(=O)NC1=N2)C1CCCCC1
Endpoint unit: nM
IC50: 16

[ask] Given the compound `CN(C(=O)CCCCCOc1ccc2c(c1)CN1CC(=O)NC1=N2)C1CCCCC1` , what is its reported IC50?
[reply] 12

# credit: patent US4663320A
